# System Name: Protein deacetylase HDAC6 (Homo sapiens) (UniProt Q9UBN7)
# Sequence (Q9UBN7 whole entry): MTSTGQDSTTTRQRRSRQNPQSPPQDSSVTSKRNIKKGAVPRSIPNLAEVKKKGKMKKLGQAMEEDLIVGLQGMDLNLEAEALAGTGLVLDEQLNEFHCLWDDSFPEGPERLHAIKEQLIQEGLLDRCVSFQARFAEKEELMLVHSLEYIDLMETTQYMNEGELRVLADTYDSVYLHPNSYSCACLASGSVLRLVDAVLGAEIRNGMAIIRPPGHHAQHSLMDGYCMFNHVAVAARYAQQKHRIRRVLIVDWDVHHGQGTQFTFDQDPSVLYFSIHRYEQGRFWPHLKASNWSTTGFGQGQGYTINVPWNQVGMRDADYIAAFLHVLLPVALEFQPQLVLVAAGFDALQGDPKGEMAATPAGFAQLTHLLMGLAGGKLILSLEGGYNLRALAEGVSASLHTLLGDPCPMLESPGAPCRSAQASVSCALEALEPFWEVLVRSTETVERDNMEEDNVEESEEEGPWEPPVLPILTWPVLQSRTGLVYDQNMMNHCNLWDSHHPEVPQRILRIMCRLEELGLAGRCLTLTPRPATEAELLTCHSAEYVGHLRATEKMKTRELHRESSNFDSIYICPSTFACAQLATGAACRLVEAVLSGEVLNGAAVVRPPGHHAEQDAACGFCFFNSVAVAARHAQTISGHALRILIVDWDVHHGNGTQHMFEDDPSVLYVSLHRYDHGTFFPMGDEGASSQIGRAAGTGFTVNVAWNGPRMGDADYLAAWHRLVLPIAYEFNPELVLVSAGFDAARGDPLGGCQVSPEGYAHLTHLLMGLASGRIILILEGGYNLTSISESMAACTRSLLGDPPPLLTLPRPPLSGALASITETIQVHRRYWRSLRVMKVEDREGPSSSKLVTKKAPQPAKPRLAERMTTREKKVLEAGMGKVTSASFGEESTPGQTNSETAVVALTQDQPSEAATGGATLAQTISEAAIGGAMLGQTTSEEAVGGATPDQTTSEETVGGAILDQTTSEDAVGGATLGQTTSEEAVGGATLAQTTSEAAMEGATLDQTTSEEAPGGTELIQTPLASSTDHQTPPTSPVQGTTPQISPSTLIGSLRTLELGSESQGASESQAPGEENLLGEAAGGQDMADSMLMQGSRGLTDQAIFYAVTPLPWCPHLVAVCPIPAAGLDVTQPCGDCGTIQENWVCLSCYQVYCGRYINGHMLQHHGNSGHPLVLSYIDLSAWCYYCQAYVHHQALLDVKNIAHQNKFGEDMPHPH
# Condition Context: at 10 µM
About 390 (7%) of roughly 5,600 compounds showed an effect of 50% or more. What follows is part of a selection rich in strong results, with near analogues and random picks from the rest.
Provide the recorded inhibition for the entries that follow.
Supply the numeric figure in %, leaving out any unit text.

Report measured inhibition; entry is O=C(O)Cc1sc(-c2ccccc2)nc1-c1ccc(Cl)cc1 -4.01

Report measured inhibition; entry is COc1cc(N2CCC(N(C)C)CC2)ccc1Nc1ncc(Cl)c(Nc2ccccc2P(C)(C)=O)n1 3.02

Report measured inhibition; entry is Cc1c(CC(C)(C)C(=O)O)n(Cc2ccc(Cl)cc2)c2ccc(F)cc12 3.54

Report measured inhibition; entry is O=C(O)c1ccc(CN2CCC(CN[C@@H]3C[C@H]3c3ccccc3)CC2)cc1 59.3

Report measured inhibition; entry is COc1cc(N)c(Cl)cc1C(=O)CCC1CCN(CCNS(C)(=O)=O)CC1 -6.48

Report measured inhibition; entry is COc1cccc(OCCCN)c1-c1cc(Nc2cnc(C#N)cn2)n[nH]1 -3.28

Report measured inhibition; entry is CN1CCN(CCc2ccc(Cl)c(Cl)c2)CC1 0.9

Report measured inhibition; entry is O=C(CCCCCN1C(=O)c2cccc3cccc(c23)C1=O)NO 100

Report measured inhibition; entry is O=C(O)CCCN1C(=O)c2cccc3cccc(c23)C1=O -3.55

Report measured inhibition; entry is COc1ccc2nc(NC(=O)Nc3ccccc3)sc2c1 109

Report measured inhibition; entry is N[C@H]1C[C@@H]1c1ccc(-c2cccc(O)c2)cc1 77.4

Report measured inhibition; entry is CC(C)(C)c1cc(O)c(C(C)(C)C)cc1O 10.7

Report measured inhibition; entry is N[C@@H](Cc1ccc(B(O)O)cc1)C(=O)O 0.83

Report measured inhibition; entry is CCOc1cc2ncc(C#N)c(Nc3ccc(OCc4cccc(F)c4)c(Cl)c3)c2cc1NC(=O)/C=C/CN(C)C -4.4

Report measured inhibition; entry is C[C@H](NC(=O)Cc1cc(F)cc(F)c1)C(=O)N[C@H](C(=O)OC(C)(C)C)c1ccccc1 17.3

Report measured inhibition; entry is c1ccc2sc(SN3CCOCC3)nc2c1 58.2

Report measured inhibition; entry is Cc1csc2c(N[C@@H](C)CN3CCN(S(=O)(=O)c4ccc(Cl)c(Cl)c4)CC3)ncnc12 7.29

Report measured inhibition; entry is CNNCc1ccc(C(=O)NC(C)C)cc1 4.33

Report measured inhibition; entry is CCc1cccc(CC)c1NC(=O)N1Cc2[nH]nc(NC(=O)c3ccc(N4CCN(C)CC4)cc3)c2C1 7.27

Report measured inhibition; entry is CO/N=C(/C(=O)N[C@@H]1C(=O)N2C(C(=O)O)=C(CSc3nc(=O)c(O)nn3C)CS[C@H]12)c1csc(N)n1 -3.44

Report measured inhibition; entry is COC1CCN(c2cccc(-c3cc(NC(C)=O)nc(-n4nc(C)cc4C)n3)n2)CC1 20.5

Report measured inhibition; entry is NS(=O)(=O)C#Cc1ccccc1 -0.7

Report measured inhibition; entry is CCCN(C/C=C/I)C1CCc2cccc(O)c2C1 (stereo not drawn) 14.4

Report measured inhibition; entry is N#Cc1ccc(N(Cc2ccc(Br)cc2)n2cnnc2)cc1 7.87

Report measured inhibition; entry is CN1CCN(CCCCN2C(=O)CN(/N=C/c3ccc(-c4ccc(Cl)cc4)o3)C2=O)CC1 -7.57

Report measured inhibition; entry is N=C(N)NCCCC(NC(=O)C1CCCN1C(=O)C1CSSCCC(=O)NC(Cc2ccc(O)cc2)C(=O)NC(Cc2ccccc2)C(=O)NC(CCC(N)=O)C(=O)NC(CC(N)=O)C(=O)N1)C(=O)NCC(N)=O (stereo not drawn) 12.1

Report measured inhibition; entry is O=C(NC1CCN(Cc2ccccc2)CC1)c1ccc(I)cc1 21.3

Report measured inhibition; entry is COC(=O)Nc1nc2cc(C(=O)c3ccc(F)cc3)ccc2[nH]1 1.02

Report measured inhibition; entry is C#Cc1cnc2nc(O)n(C(CC)CC)c2n1 -6.31

Report measured inhibition; entry is Nc1ncnc2nc(-c3ccc(N4CCOCC4)nc3)cc(-c3cccc(Br)c3)c12 19.8

Report measured inhibition; entry is O=C(O)C[C@H]1CC[C@H](c2ccc(NC(=O)c3nnc(Nc4ccc(F)c(F)c4)o3)cc2)CC1 35.2

Report measured inhibition; entry is CCOc1cc(C(=O)Nc2ccc(Cl)c(-c3nc4ccccc4[nH]3)c2)cc(OCC)c1OCC 11.9

Report measured inhibition; entry is Cn1cnc2[nH]c(=O)[nH]c(=O)c21 9.47

Report measured inhibition; entry is O=C(O)c1cnn(-c2nc3cc(OC(F)(F)F)c(Cl)cc3[nH]2)c1 59.5

Report measured inhibition; entry is Cn1c(-c2ccccc2)nnc1S(C)(=O)=O 36

Report measured inhibition; entry is C[N+](C)(C)NCCC(=O)[O-] 17.8

Report measured inhibition; entry is Nc1cccc(-c2cc3c(Oc4cccc(O)c4)ncnc3[nH]2)c1 55.1

Report measured inhibition; entry is CC1=NN(c2ccccc2)C(=O)C1 -9.97

Report measured inhibition; entry is C=CC1=C(C)c2cc3[nH]c(cc4nc(cc5[nH]c(cc1n2)c(C)c5CCC(=O)O)C(CCC(=O)O)=C4C)c(C)c3C=C 21.1

Report measured inhibition; entry is C#Cc1cccc(Nc2ncnc3cc(OC)c(OCCCCCCC(=O)NO)cc23)c1 101

Report measured inhibition; entry is CCCOc1ccc2[nH]c(NC(=O)OC)nc2c1 31.6

Report measured inhibition; entry is CC(C)=CCC/C(C)=C/CC/C(C)=C/CC[C@]1(C)CCc2cc(O)cc(C)c2O1 -4.35

Report measured inhibition; entry is NC(C(=O)O)c1nnn[nH]1 (racemic) 4.47

* * *

Provide the recorded inhibition for the entries that follow.
# System Name: Protein deacetylase HDAC6 (Homo sapiens) (UniProt Q9UBN7)
# Condition Context: at 10 µM
Among all 5,600 compounds or so, about 390 (7%) showed an effect of 50% or more. This excerpt belongs to a sample that is enriched for strong results.
Supply the numeric figure in %, leaving out any unit text.

Enter measured inhibition, system Protein deacetylase HDAC6 (Homo sapiens) (UniProt Q9UBN7), for the compound shown: O=C1c2ccccc2C(Cc2ccncc2)(Cc2ccncc2)c2ccccc21 3.99

Enter measured inhibition, system Protein deacetylase HDAC6 (Homo sapiens) (UniProt Q9UBN7), for the compound shown: O=C(O)c1cccc(-c2noc(-c3ccccc3F)n2)c1 105

Enter measured inhibition, system Protein deacetylase HDAC6 (Homo sapiens) (UniProt Q9UBN7), for the compound shown: O=C(c1ccc(F)cc1)N1CCC[C@H](c2nc(-c3ccc(F)cc3)no2)C1 10.8

Enter measured inhibition, system Protein deacetylase HDAC6 (Homo sapiens) (UniProt Q9UBN7), for the compound shown: Cc1csc(S(=O)(=O)N(CC(C)C)c2cc3c(cc2OCc2ccc(C(=O)O)cc2)CCC3)n1 1.78

Enter measured inhibition, system Protein deacetylase HDAC6 (Homo sapiens) (UniProt Q9UBN7), for the compound shown: O=c1sn(-c2cccc3ccccc23)c(=O)n1Cc1ccccc1 83.4

Enter measured inhibition, system Protein deacetylase HDAC6 (Homo sapiens) (UniProt Q9UBN7), for the compound shown: CCO[C@@H](Cc1ccc(OCCc2ccc(OS(C)(=O)=O)cc2)cc1)C(=O)O -7.27

Enter measured inhibition, system Protein deacetylase HDAC6 (Homo sapiens) (UniProt Q9UBN7), for the compound shown: Clc1ccccc1CNC[C@H]1CC[C@H](CNCc2ccccc2Cl)CC1 9.4

Enter measured inhibition, system Protein deacetylase HDAC6 (Homo sapiens) (UniProt Q9UBN7), for the compound shown: CN(Cc1ccc(C(C)(C)C)cc1)Cc1cccc2ccccc12 2.21

Enter measured inhibition, system Protein deacetylase HDAC6 (Homo sapiens) (UniProt Q9UBN7), for the compound shown: COc1cc(NC(=O)Nc2cccc(CNC(=O)O[C@H]3CCOC3)c2)ccc1-c1cnco1 38.8

Enter measured inhibition, system Protein deacetylase HDAC6 (Homo sapiens) (UniProt Q9UBN7), for the compound shown: Cc1ccc2nc(NCCN)c3ncc(C)n3c2c1 4.14

* * *

# System Name: Protein deacetylase HDAC6 (Homo sapiens) (UniProt Q9UBN7)
# Condition Context: at 10 µM
About 390 (7%) of roughly 5,600 compounds showed an effect of 50% or more. The list comes from a sample in which strong results are over-represented; it also holds close analogues and randomly drawn compounds.
Assign MET whenever inhibition does not fall below 10%; assign NOT MET whenever it does.

Reported inhibition at or above 10%? CCOC(=O)C1=C(C)NC(=S)NC1c1cccc(O)c1 (stereo not drawn) NOT MET

Reported inhibition at or above 10%? CCOC(=O)c1ccc(N)cc1 MET

Reported inhibition at or above 10%? CCCCC[C@H](O)/C=C/[C@@H]1[C@H]2C/C(=C/CCCC(=O)O)O[C@H]2C[C@H]1O MET

Reported inhibition at or above 10%? COc1ccc(N(C)c2nc(C)nc3ccccc23)cc1 NOT MET

Reported inhibition at or above 10%? O=C(CCCl)NCc1ccccc1 NOT MET

Reported inhibition at or above 10%? O=C(CN1CCNCC1)NC1CCCCC1 MET

Reported inhibition at or above 10%? N#C/C(=C\c1ccc(O)c(O)c1)C(=O)NCCCc1ccccc1 MET

Reported inhibition at or above 10%? CC1(C)Oc2ccc(C#N)cc2[C@@H](OC2=CC(=O)CC2)[C@@H]1O NOT MET
